targetSystem: PRKCE (human)
experimentSummary: KINOMEscan competition binding
conditionLabel: compound 10.0 µM
Consider the cut-off 80%. If the recorded kinase still bound, per cent of control is strictly smaller, the label is rule met; if not, the label is rule not met.

CNC(=O)Nc1ccc(-c2nc(N3CC4CCC(C3)O4)c3cnn(C4CCC5(CC4)OCCO5)c3n2)cc1 = rule not met
CC(=O)c1c(C)c2cnc(Nc3ccc(N4CCNCC4)cn3)nc2n(C2CCCC2)c1=O = rule met
CCN1CCN(Cc2ccc(NC(=O)c3ccc(C)c(/C=C/c4cnc5[nH]ccc5c4OC)c3)cc2C(F)(F)F)CC1 = rule met
CCc1nc(-c2cccc(C)c2)c(-c2ccnc(NC(=O)c3ccccc3)c2)s1 = rule not met

----------
Tested on: KIT (human), P10721 [A829P]
Sequence (P10721 whole entry A829P, looked up): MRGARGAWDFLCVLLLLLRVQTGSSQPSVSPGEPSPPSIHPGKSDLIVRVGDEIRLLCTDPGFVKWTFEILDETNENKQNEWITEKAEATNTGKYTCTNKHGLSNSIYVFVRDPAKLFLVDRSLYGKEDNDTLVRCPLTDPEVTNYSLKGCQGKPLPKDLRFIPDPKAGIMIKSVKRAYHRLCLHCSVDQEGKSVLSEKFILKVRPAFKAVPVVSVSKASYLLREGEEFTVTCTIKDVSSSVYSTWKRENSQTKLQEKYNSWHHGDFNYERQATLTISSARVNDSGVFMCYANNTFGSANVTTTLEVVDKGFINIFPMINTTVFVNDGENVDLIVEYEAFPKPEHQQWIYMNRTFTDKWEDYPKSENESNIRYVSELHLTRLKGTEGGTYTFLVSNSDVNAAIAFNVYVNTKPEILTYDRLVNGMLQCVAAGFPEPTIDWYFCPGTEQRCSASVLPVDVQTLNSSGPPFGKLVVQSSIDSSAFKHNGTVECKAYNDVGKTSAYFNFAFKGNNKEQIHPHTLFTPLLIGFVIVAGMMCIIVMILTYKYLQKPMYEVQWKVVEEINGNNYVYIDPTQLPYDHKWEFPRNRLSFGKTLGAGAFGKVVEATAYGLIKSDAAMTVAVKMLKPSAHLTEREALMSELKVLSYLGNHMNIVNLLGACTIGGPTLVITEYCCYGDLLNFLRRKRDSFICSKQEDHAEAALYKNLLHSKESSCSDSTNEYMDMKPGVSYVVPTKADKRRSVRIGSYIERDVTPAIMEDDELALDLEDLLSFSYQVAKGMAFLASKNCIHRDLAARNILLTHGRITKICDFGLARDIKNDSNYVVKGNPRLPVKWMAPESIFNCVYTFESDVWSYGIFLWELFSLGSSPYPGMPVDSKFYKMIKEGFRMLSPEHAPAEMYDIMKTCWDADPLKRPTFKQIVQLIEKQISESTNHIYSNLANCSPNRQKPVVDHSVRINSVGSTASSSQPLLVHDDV
experimentSummary: KINOMEscan competition binding
conditionLabel: compound 10.0 µM
Consider the cut-off 60%. If the recorded kinase still bound, per cent of control is strictly smaller, the label is Yes; if not, the label is No.

CC(=O)c1c(C)c2cnc(Nc3ccc(N4CCNCC4)cn3)nc2n(C2CCCC2)c1=O = Yes
O=C1NC(=O)/C(=C/c2ccc3nccc(-c4ccncc4)c3c2)S1 = No
O=c1cc(N2CCOCC2)oc2c(-c3cccc4c3sc3ccccc34)cccc12 = No
COc1cc2ncn(-c3cc(OCc4ccccc4C(F)(F)F)c(C(N)=O)s3)c2cc1OC = Yes
COc1ccc(N(C(=O)Oc2c(C)cccc2C)c2ccnc(Nc3ccc(N4CCN(C)CC4)cc3)n2)c(OC)c1 = Yes
Cc1cc([C@@H](C)Nc2ccccc2C(=O)O)c2nc(N3CCOCC3)cc(=O)n2c1 = No
CNC(=O)Nc1ccc(-c2nc(N3CC4CCC(C3)O4)c3cnn(C4CCC5(CC4)OCCO5)c3n2)cc1 = No
COc1cc(C(=O)N2CCC(N3CCN(C)CC3)CC2)ccc1Nc1ncc2c(n1)N(C)c1ccccc1C(=O)N2C = No
CN(C)C/C=C/C(=O)Nc1cccc(Nc2ncc3c(n2)N(C)c2ccccc2C(=O)N3C)c1 = Yes
CCCS(=O)(=O)Nc1ccc(F)c(C(=O)c2c[nH]c3ncc(-c4ccc(Cl)cc4)cc23)c1F = No
N#Cc1c(NC(=O)c2cccc3ccccc23)sc2c1CCCC2 = No
O=C(O)c1ccc(Nc2ncc3c(n2)-c2ccc(Cl)cc2C(c2c(F)cccc2F)=NC3)cc1 = No
N#CCNC(=O)c1ccc(-c2ccnc(Nc3ccc(N4CCOCC4)cc3)n2)cc1 = No
CCN(CCO)CCCOc1ccc2c(Nc3cc(CC(=O)Nc4cccc(F)c4)[nH]n3)ncnc2c1 = Yes
Nc1ccc(-c2ccc3ncc4ccc(=O)n(-c5cccc(C(F)(F)F)c5)c4c3c2)cn1 = No
Cc1ccc(NC(=O)c2cccc(C(C)(C)C#N)c2)cc1Nc1ccc2ncn(C)c(=O)c2c1 = No
N#Cc1cc(-c2ccnc(Nc3ccc(-n4cnc(-c5cccnc5)n4)cc3)n2)cc(N2CCOCC2)c1 = Yes
CN(C)C/C=C/C(=O)Nc1ccc(C(=O)Nc2cccc(Nc3nccc(-c4cccnc4)n3)c2)cc1 = No
CCN1CCN(C(=O)Cc2ccc(Nc3ncc(F)c(Nc4ccc(C(=O)Nc5ccccc5Cl)cc4)n3)cc2)CC1 = No
C[C@@H](Oc1cc(-n2cnc3ccc(CN4CCN(C)CC4)cc32)sc1C(N)=O)c1ccccc1C(F)(F)F = Yes
C=CC(=O)Nc1cccc(Nc2nc(N[C@H]3CC[C@H](N(C)C)CC3)nc3c2ncn3C(C)C)c1 = Yes
N#C/C(=C1/Nc2ccccc2S1)c1ccnc(NCCc2cccnc2)n1 = No
COc1cc2ncnc(-n3nc(-c4ccccn4)nc3N)c2cc1OC = Yes
CC1=C(C(=O)Nc2cc3cn[nH]c3cc2F)C(c2ccc(C(F)(F)F)cc2)CC(=O)N1 (configuration not stated) = Yes
O=C1Nc2ccc(I)cc2/C1=C/c1cc(Br)c(O)c(Br)c1 = No
C[C@@H](Oc1cc(-c2cnn(C3CCNCC3)c2)cnc1N)c1c(Cl)ccc(F)c1Cl = Yes
CCN1CCN(Cc2ccc(NC(=O)c3ccc(C)c(/C=C/c4cnc5[nH]ccc5c4OC)c3)cc2C(F)(F)F)CC1 = No
CCCS(=O)(=O)Nc1ccc(F)c(C(=O)c2c[nH]c3ncc(Cl)cc23)c1F = No
O=c1[nH]c2ccccc2n1C1CCN(Cc2ccc(-c3nc4cc5[nH]cnc5cc4nc3-c3ccccc3)cc2)CC1 = No
CCOc1cc2ncc(C#N)c(Nc3ccc(OCc4ccccn4)c(Cl)c3)c2cc1NC(=O)/C=C/CN(C)C = No
COc1cc2ncnc(Nc3cccc(Cl)c3)c2cc1OC = Yes
C=CC(=O)Nc1cc(NC(=O)c2ccc(C)c(NC(=O)c3ccno3)c2)cc(C(F)(F)F)c1 = Yes
COc1cc(N2CCN(C)CC2)ccc1Nc1nc(N)c(C(=O)c2c(Cl)cccc2Cl)s1 = No
CCc1nc(-c2cccc(C)c2)c(-c2ccnc(NC(=O)c3ccccc3)c2)s1 = No
O=C(NC1CC1)c1cccc(-c2ccc3c(NC(=O)C4CC4)n[nH]c3c2)c1 = No

Origin of values: the kinase profiling compilation of Christmann-Franck et al. (2016)
